Test system: Saccharomyces cerevisiae;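 further: PSI is a weighted mean of sequencing reads over stability bins, variants kept only with over 10 reads, mCherry proximal and sfGFP distal, peptide attached via GGGS linker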
Assay: protein stability index of tFT-peptide fusion (C-terminal peptide) (PSI (0-1 scale)); higher = more stable (slower turnover)
Conditions: genetic background: das1 deletion; temperature: 37 C
Would you kindly list protein stability index for each of these sequences?

// protein stability index lookup, key: CVILVSFFCYSA
0.322

Value lookup for protein stability index; key = FRFSSLLYILLS
0.402

Any idea what its protein stability index is? The sequence is ARWGVGLWRGAS
0.765

Entry under review: SLSSSFQFSSPS . Reported protein stability index?
0.722

Given PALPTPPVSPSP , state its recorded protein stability index.
0.465

For FPPHFLPLVFLS , what is its reported protein stability index?
0.67

Fill in the blank: the reported protein stability index of VPQMLVSVCLSN is ____.
0.423

Reported protein stability index, sequence GGGWCVWMVWFG : ____
0.595

What value of protein stability index has been reported for the following sequence? YMVSLSFTLVRS
0.474

Given WFLMVILYTVYG , state its recorded protein stability index.
0.304

Sample VAALLCWLHLYA — what was its protein stability index?
0.622

Can you share its protein stability index? I mean this sequence: HINRTIWARYQV
0.75

I have this sequence here, VVATLRCLRCSV , and I need its recorded protein stability index.
0.524

Any idea what protein stability index was measured for VFRRWGLIGVIV ?
0.434

Given VFSVSVLFLFFH , state its recorded protein stability index.
0.456

For the sequence shown here, IVWVSSFVCRSV , give the reported protein stability index.
0.524

Report protein stability index for GRGGLRVVVWLV please.
0.665

What value of measured protein stability index is listed for VIRSIVSAYMIC ?
0.673

What does the record list as protein stability index for PPSPPPLSASVP ?
0.698

Returns the measured protein stability index for the input sequence. Input: FVCLCGFLQVLS
0.632

Would you kindly share the measured protein stability index for PVPPSLLHRPPF ?
0.722

Item IVSFRLDLSLAV has what recorded protein stability index?
0.559

# input sequence: VALSILCVFFFF ; wanted: its protein stability index
0.446

Please report the recorded protein stability index for VLVVWLGICFGY .
0.37

Which protein stability index value is on record for FFRVCNALLLVC ?
0.152

Report protein stability index for VCNYRKLIWKHH please.
0.746

Report protein stability index for SRGRVLRLLLLV please.
0.524

Value lookup for protein stability index; key = FCDFLFVFPLFS
0.658

Which protein stability index is reported for this sequence? CMYTILRHKINN
0.763

Would you mind telling me what protein stability index value was observed for GPILVWVMADWG ?
0.549

Consider the sequence GFFLCTCIRFWV and give its measured protein stability index.
0.544

Entry IWVVIISDSRVG has what protein stability index?
0.488

Would you mind telling me what protein stability index value was observed for IFPSRSLLAASA ?
0.519

protein stability index for LCSCAVVICCSL ?
0.463

Given the sequence PGFCFFLYYCMM , what is its reported protein stability index?
0.562

Name the reported protein stability index value associated with the sequence PRHLTPPPAPSA
0.708

Give the measured protein stability index of SLALLFSFLLFL .
0.536

Give the measured protein stability index of VFFCLFWFFCSF .
0.54

Which protein stability index is reported for this sequence? MMEMMTKSNRIP
0.709

Record request: protein stability index value, item FFCCRLPCLFVL
0.482

# lookup: protein stability index of LFFGLCFVFFGF
0.48
